Tested on: VISA clinical isolates of MRSA (VI-MRSA) and of MSSA (VI-MSSA)
protocol details: microbe, parasite or virus in culture
Format: cell-based, Staphylococcus aureus
condition: Staphylococcus aureus, HIP09735, VI-MRSA, America
# MIC per entry
Entry rule: numbers only, all in µg/mL.

Some molecules with recorded MIC:
- molecule: "CC1COc2c(N3CCN(C)CC3)c(F)cc3c(=O)c(C(=O)O)cn1c23 (stereo not shown) [OFLX, ofloxacin]"
  reported measurement: 32
- molecule: "C[C@H]1COc2c(N3CCN(C)CC3)c(F)cc3c(=O)c(C(=O)O)cn1c23 [LVFX, levofloxacin]"
  reported measurement: 8
- molecule: "C[C@@H]1CN(c2c(F)c(N)c3c(=O)c(C(=O)O)cn(C4CC4)c3c2F)C[C@H](C)N1 [SPFX, sparfloxacin]"
  reported measurement: 16

Cc1cc(=O)n2c3c(c4c(cc13)c(CO)cc(=O)n4C)OC2 [NM, nybomycin] yielded MIC of 0.25
